Test system: MT4
test: Cytotoxicity against human MT4 cells at 10 uM after 6 to 7 days
Assay type: cell-based
condition notes: mt4, 10 µM
value type: Activity

Some entries whose results are on file:
| substance | Activity |
| --- | --- |
| Ac-LAQLLFIHFRIGRRRRRRRR-NH2 | Toxic |
| Ac-LQQLLAIHFRIGRRRRRRRR-NH2 | Toxic |
| Ac-LQQLLFIHFAIGRRRRRRRR-NH2 | Toxic |
| Ac-LQQALFIHFRIGRRRRRRRR-NH2 | Toxic |
| Ac-LQQLLFIHARIGRRRRRRRR-NH2 | Toxic |

Each substance below has a recorded value; state its Activity.
1. Ac-LQALLFIHFRIGRRRRRRRR-NH2
2. Ac-LQQLAFIHFRIGRRRRRRRR-NH2

1. Toxic
2. Toxic

----------
subject of test: Human immunodeficiency virus type 1 integrase (Human immunodeficiency virus 1, UniProt Q7ZJM1)
Sequence (Q7ZJM1 whole entry): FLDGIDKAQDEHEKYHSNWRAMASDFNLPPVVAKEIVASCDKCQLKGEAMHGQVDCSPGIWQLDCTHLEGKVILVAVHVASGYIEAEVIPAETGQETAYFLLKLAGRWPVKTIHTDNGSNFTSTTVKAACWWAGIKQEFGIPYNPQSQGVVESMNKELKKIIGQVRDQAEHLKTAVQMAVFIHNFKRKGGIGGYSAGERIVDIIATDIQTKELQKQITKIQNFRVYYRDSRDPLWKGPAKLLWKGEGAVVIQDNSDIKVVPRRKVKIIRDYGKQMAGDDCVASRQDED
test: Inhibition of HIV1 integrase 3'-processing activity expressed in Escherichia coli after 60 mins
value type: IC50 (µM)
Numbers only, in µM.

Look up IC50 for this substance: `Ac-LQQLLFIHFRIARRRRRRRR-NH2`
0.09

Value source: ChEMBL document CHEMBL1240507
